# Test system: SK-MEL-28 melanoma
# assay: NCI-60 one-dose screen, 48 h
# condition.summary: 10 µM unless noted
# Method: Growth inhibition of the SK-MEL-28 human tumor cell line is measured as a screen for anti-cancer activity. Cells are grown in 96 well plates and exposed to the test compound for 48 hours. Compounds are tested at a single concentration, which is 10^-5 M for most compounds. The reported endpoint is percent growth (GI% or GIPRCNT), where numbers from 0 - 100% represent growth inhibition, and numbers from -100% - 0 represent cell death. For example, a value of 40 represents 60% growth inhibition. […]
This is part of a sample that, as a whole, favours compounds with a hit. Of some 83,000 tested, about 20% had one in any assay. Activity calls are given as the source filed them. The calls were made as follows: active = growth percent below 10; inactive = the rest.
// classify into active, inactive

Illustrative cases are given below, each with its answer.
- compound: "Fc1ccc(-c2nn3c(-c4cc(C(F)(F)F)cc(C(F)(F)F)c4)nnc3s2)cc1"
  category.label: "inactive"
- compound: "O=C(NN1C(=O)c2cc(C(=O)O)c(C(=O)O)cc2C1=O)c1ccncc1"
  category.label: "inactive"
- compound: "CCCCCCCCN(CCO)CCCCCCCC"
  category.label: "inactive"
- compound: "CC(=O)Nc1ccc(C(=O)COc2cccc(/C=C3\\CCc4ccccc4C3=O)c2)cc1"
  category.label: "inactive"
- compound: "OC(c1ccccc1)C(NCc1ccccc1)c1ccccc1 (stereo not given)"
  category.label: "inactive"
- compound: "O=C1C2C(C(=O)N1CC[Se][Se]CCN1C(=O)C3C(C1=O)[C@H]1C=C[C@@H]3C1)[C@H]1C=C[C@@H]2C1 (stereo not given in full)"
  category.label: "active"
- compound: "N#Cc1c(NC(=O)c2ccco2)[n+]([O-])c2ccccc2[n+]1[O-]"
  category.label: "inactive"
- compound: "Oc1ccc(/C=N/Nc2nc3ccccc3s2)c(O)c1"
  category.label: "inactive"
- compound: "O=c1sc2ncnc3ncn1c32"
  category.label: "inactive"
- compound: "Cn1ccnc1C(=O)/C=C/c1ccc(C(=O)Nc2nc3ccccc3[nH]2)cc1"
  category.label: "inactive"

### Prompt Hi, sorry to bother you, what did the test record for CCc1nn2c(-c3ccc(Cl)cc3C)c(-c3cc(OC)c(OC)c(OC)c3)nc2s1 ?
### Response inactive

### Prompt Which outcome was assigned to COc1ccc(N2CCN(CC(=O)N3CCN(c4nnc(-c5ccc(Cl)cc5)c(-c5ccc(Cl)cc5)n4)CC3)CC2)cc1 in this test?
### Response inactive

### Prompt Hello, I am checking results. What call was entered for COc1cnc2c(c1)C(=O)c1c-2n(CCCN2CCCC2)c(=O)c2cc(F)ccc12 ?
### Response inactive

### Prompt Check the results log: what was the call for Cc1ccc(/C=C/C(=O)c2ccc(F)cc2)s1 ?
### Response inactive

### Prompt # fetch the recorded call for CCn1cnc(C[C@H](NC(=O)[C@H](CCCCNC(=O)Nc2cc(C(F)(F)F)cc(C(F)(F)F)c2)NC(=O)Nc2cc(C(F)(F)F)cc(C(F)(F)F)c2)C(=O)OC)c1 here
### Response active

### Prompt Tell me the assay call for CC1(C)CC2(C)CC(=O)C1C(C(=O)O)C2C(=O)O (stereo not given) please.
### Response inactive

### Prompt Please indicate how the test categorized COc1ccc2ncccc2c1Cc1c(OC)ccc2ncccc12 .
### Response inactive

### Prompt Outcome logged for C[N+]1(C)C2CC[C@@H]1CC(OC(=O)C(O)c1ccccc1)C2 (stereo not given in full) in this assay:
### Response inactive

### Prompt Kindly provide the recorded test outcome for the following compound: O=CN1N=C(c2ccc(Nc3ccnc4cc(Cl)ccc34)cc2)CC1c1ccc(Cl)cc1 (stereo not given)
### Response inactive

### Prompt Fill in: this test's call for COc1cc(/C=C/C(=O)CC(=O)/C=C/c2ccc(OC(=O)C3C4CC5CC(C4)CC3C5)c(OC)c2)ccc1OC(=O)C1C2CC3CC(C2)CC1C3 (stereo not given) is ___
### Response inactive
